- System name: 5-hydroxytryptamine receptor 2A (Mus musculus) (UniProt P35363)
- Sequence (P35363 whole entry, looked up): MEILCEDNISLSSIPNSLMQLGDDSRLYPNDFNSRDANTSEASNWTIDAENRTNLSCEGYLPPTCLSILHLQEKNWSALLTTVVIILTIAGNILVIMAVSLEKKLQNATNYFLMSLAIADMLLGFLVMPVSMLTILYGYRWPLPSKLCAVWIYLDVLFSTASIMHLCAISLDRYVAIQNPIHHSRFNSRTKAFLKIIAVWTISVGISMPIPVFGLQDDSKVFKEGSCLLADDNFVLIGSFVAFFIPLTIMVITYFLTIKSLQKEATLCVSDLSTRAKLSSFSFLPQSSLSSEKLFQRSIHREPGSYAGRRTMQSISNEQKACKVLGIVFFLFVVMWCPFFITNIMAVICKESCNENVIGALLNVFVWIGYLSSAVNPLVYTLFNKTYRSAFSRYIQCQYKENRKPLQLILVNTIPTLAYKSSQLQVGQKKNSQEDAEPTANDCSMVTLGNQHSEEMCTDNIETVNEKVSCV
- Protocol: agonist activity at mouse 5-HT2A receptor – cell-based, luminescence, CHO-K1 PathHunter, triplicate, confirmation (AID 624381)
- Protocol conditions: CHO-K1 PathHunter beta-arrestin recruitment, at 7.6 µM, DMSO 0%, 30 µM serotonin 100%
Among all 2,300 compounds or so, about 430 (19%) were called active.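 Rule for the calls: active = mean activation across triplicates above the hit threshold derived in the original primary screen (cut at about 15% in these data); inactive = the rest.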 These entries were drawn from the full list.
Answer with one of the outcomes given here: 1 (yes) = active, 0 (no) = inactive

Observe how each entry below is paired with its result.
Compound	Classification
COc1ccc(N2CC(C(=O)NCCN3C(=O)S/C(=C\c4cccnc4)C3=O)CC2=O)c(OC)c1 (stereo not given)	0 (no)
Nc1c(N(Cc2ccco2)C(=O)c2cccc(F)c2)c(=O)[nH]c(=O)n1Cc1ccccc1	0 (no)
COC(=O)[C@]12CCCCC=C1N(CCC1=CCCCC1)C(=O)[C@H](CC(=O)NCC1CCCCC1)C2	0 (no)
OCC1(Cc2ccccc2)CCN(Cc2cc3ccccc3o2)CC1	1 (yes)
Cc1ccccc1CSCC(=O)NC(=O)NC(C)(C)C	0 (no)
COc1ccc(C2c3[nH]c4ccccc4c3C[C@H]3C(=O)N(CC(C)C)CC(=O)N23)c(OC)c1 (stereo not given in full)	0 (no)
CC1(Cc2cccc(C#N)c2)C(=O)Nc2ccc(-c3cccc(C(F)(F)F)c3)cc21 (stereo not given)	0 (no)
COc1ccc(/C(=N\O)c2nccc3cc(OC)c(OC)cc23)cc1OC	0 (no)
COc1ccc2[nH]cc(CCN3C(=O)c4ccc(C(=O)O)cc4C3=O)c2c1	0 (no)

Short answer needed: outcome of this test for CSc1ncnc2c1ncn2CCCNCc1cccs1 ?
0 (no)
